Measured values drawn from the domain aggregation screens of Martell et al. (2025) for this set.

Assay: soluble fraction after stress (log2 fold change); higher = more stays soluble; pooled small domains, quantitative proteomics
Conditions: stress: pH 4
// label = True if soluble fraction (log2) is not less than -0.3, otherwise False

Take a look at these entries with their results.
- MONOMER_SEQUENCE: "HMSEDAVKFRAAVEVENGLAQRNLNKNQAALILGVDRSYFTYIISGKKTPSPDMAKRIGLLLGFDWRVFYA"
  CATEGORY: "False"
- MONOMER_SEQUENCE: "HMTIDNPESQKIMDMVPFFFQSRNYDEAIEALTYVIEQEPQFSEAYNKRATFYFMMGDLENSMKDIEITLA"
  CATEGORY: "False"
- MONOMER_SEQUENCE: "HMENTIPSVIGRTLSDGVFLLESYGYVKGNVSEEFSEMPIGVIIRQFPGAGSAAEAGTRVDLVVSKGEEIV"
  CATEGORY: "False"
- MONOMER_SEQUENCE: "HMPNTLAGIERYLGSGMVKGIGPVYASRLVSAFGTAVFDVIEQTPERLREIDGIGEKRTRKITSGWADQ"
  CATEGORY: "True"

query: Could you verify whether the entry HMNYKNAIGQVGSVYVPIPPNREGLGQIEVKVQSRVSTVRAVSDHSERLENRVAVRVIELVDDRTLLVEKL shows soluble fraction (log2) of no less than -0.3?
result: False

query: Could you verify whether the entry HMGGKWSMPIIYILSKGKMRFKELERSVEGINTRMLVKELKNMEANGIVTREVFPTVPPTVEYALT shows soluble fraction (log2) of no less than -0.3?
result: True

query: Could you verify whether the entry HMTKPLHELLSQREFQVFTQLAAGRSVGEIAQQLSLSSNTVSTYRARILEKTGTRNDVELALYAIRR shows soluble fraction (log2) of no less than -0.3?
result: True

query: Could you verify whether the entry HMKRRSLQVGDIVQVRSLNVKGEVVSIGKNEVVVAVGRLQMRAGFDDLDFKERPKEEREVESV shows soluble fraction (log2) of no less than -0.3?
result: True

###

Assay: soluble fraction after stress (log2 fold change); higher = more stays soluble; pooled small domains, quantitative proteomics
Conditions: stress: pH 4
Measured soluble fraction (log2), listed per entry.

query: Query: soluble fraction (log2); subject: HMFIEHSKYKLSFKYNQLGKISNVINSNNGIIMDKHFDQNITLLAKLTENTFQEIIKHFPTIIIKRL
result: -0.539

query: Query: soluble fraction (log2); subject: HMHDAKAEIIRLSALLTEYQRSYYIDGHSQVSDLEYDRLFDRLVALETSHPELREADSPTQRV
result: -1.14

query: Query: soluble fraction (log2); subject: HMHDLGEQIIEKLRASGGISTLTDKSDPDAIYRQFKVSKKKYKQALGTLYKSRRITLAPNQIKLA
result: 0.22

query: Query: soluble fraction (log2); subject: HMLVDWNYLEGKRGVTTTPLTPSGKARFGDDVVNVLSDGVLVSTGTPVRVLQVLGNRVLVEPLDG
result: 0.0163

query: Query: soluble fraction (log2); subject: HMAPTGTDRQTPHTRDELYLVLSGTGTFVNGDARHPFGPGDALFVPAGAEHRFEDFSDDFRTWVVFYGAEG
result: -0.734

query: Query: soluble fraction (log2); subject: HMELEAFPNPTDMFLSFTTKEKTPLAIYDINGKQVLYVEQITSSSKINVSKLSEGVYFAKTNQGTVKWVK
result: -0.46

query: Query: soluble fraction (log2); subject: HMVGEYTVKKGDTLWKIAGQTLGSPLRYAEIYELNKDVIEEAALGRGKKNSSNGHWIFQGTVLKIPA
result: -0.255

query: Query: soluble fraction (log2); subject: HMLTSAQLAEIRQAVRAGQASVVEDLLKNGASPNFRMENGDTGFTYAVRADTPQVAEALLKSGKL
result: -0.00206

query: Query: soluble fraction (log2); subject: HMSTSLIEFTIDRNNSIANKMIMDANIPEDILVVMIKRNGDVFVPNGSTKILPGDILVLSGNKLKY
result: -0.785

query: Query: soluble fraction (log2); subject: HMRPSGTAGILRYLSSGAIRGIGATTAQRLVSEFGEKTLDVMENEPERVAMLKGISKSKAEDFSLQLKQS
result: 0.0932

query: Query: soluble fraction (log2); subject: HMESRMTYLQKTKLATENLDAKLIDHQQWVAEVLGEDYRGVYSDEYLRRAAKVFAIFVNNLDD
result: -1.41

query: Query: soluble fraction (log2); subject: HMSLMHEESLKNIRRFINSLPESLRTAFTLREQDGLSYEEIGVITETPIGTVRSRIFRAREAILEHIKKEL
result: -0.445

query: Query: soluble fraction (log2); subject: HMIGTPLSEWQKDAPEEITRDQIAELVILKFVTVEQLALASDAQLQRIGMGGVGLRERAKLYLNRK
result: -0.316

query: Query: soluble fraction (log2); subject: HMVAELAEMAENKNITSAQLALAWILKQSENIIPIPGTKRIKYLNENIEAVNVDLSKEDVENIENLLRKYP
result: -0.65

query: Query: soluble fraction (log2); subject: HMNGIFEYSDAKKVPSLVEIENAYRRARVNGAEKFAVIINGEYFGYNPQKRGIYKLNDGEYQIL
result: 0.115

query: Query: soluble fraction (log2); subject: HMKRLQEQAYDYLKELILSGKMIENEIYSETKLASEIGISRTPIRDALQRLSQDGFIDIIPSKGFRIH
result: -0.889

query: Query: soluble fraction (log2); subject: HMVQVPSLVGISEIEAKTLLTQAGFFVKIVEVFDANQPVGIVLAQAPSAGESRIIGSPVTITVNKAQ
result: -0.6

###

Measured soluble fraction (log2), listed per entry.
Assay: soluble fraction after stress (log2 fold change); higher = more stays soluble; pooled small domains, quantitative proteomics
Settings: stress: pH 4

- MONOMER_SEQUENCE: "HMHLIPRESTYEIDGRRFVVDSVNLDFGKVSLQDITFRNATGFPIFRSESIEFMRRLVEISEAQRIAEL"
  soluble fraction (log2): -0.114
- MONOMER_SEQUENCE: "HMTTLDTVARQLRDRIREQLDPTGEMSDESLLRTIEEAVYRYSSSGHVLTANEKETVIRRIFHSFR"
  soluble fraction (log2): -0.201
- MONOMER_SEQUENCE: "HMSDDVELLGRLSDREVSVLQYLSQGYSNKQISEQMFISNKTVSTYKARLLLKLNAGSLVDLIEFAKRNTL"
  soluble fraction (log2): -0.961

query: Query: soluble fraction (log2); subject: HMSDESALLELVKQIIADNPKAVEEIRAGKEKAMGFLIGQAMKASRGSANPQIISRLVREQLG
result: 0.0495

query: Query: soluble fraction (log2); subject: HMLADRANMAPAALRQIMTAIDGGNVTPKQIESATGMAHATVARALRKMLDDGLIANDGKGRYTVLT
result: 0.238

query: Query: soluble fraction (log2); subject: HMKFLHLADLHLGKRVNGFSMLEDQAYILRQILTILDDERPDGVLIAGDVYDKPVPPTEAVELLD
result: -0.632

query: Query: soluble fraction (log2); subject: HMPLYKYYTSYQIEPGDTLTSIAQKYTINSDVSVQDYIDEVKKNNNLVSDKINSGSYLVVSYYSNEY
result: -1.24

query: Query: soluble fraction (log2); subject: HMDSLNWVEKIINTLPEQQRLIIQMRDIEQYEFAEIAKILEMNETAIRVALSRARKTIREFMIKTH
result: ≥ 0.43

query: Query: soluble fraction (log2); subject: HMNEYSLVPDIYGMTYDDALSSLRNVGLDGRLALASTNEDLANADTRVVWQSKEAGSIIDKGSNVMFVID
result: -1.27

query: Query: soluble fraction (log2); subject: HMGVLSPRQSQILALVAQGLGNREIAERLHIAPTTARDHVQAIMRRLNVNSRAAAAVMGVKLGLI
result: 0.085

query: Query: soluble fraction (log2); subject: HMTNALDMMKTMDSDAYTKYQKISKESSNEDRQLNELKYITNWYAGAVKKNPSMVDDYEKQKEADS
result: 0.162

query: Query: soluble fraction (log2); subject: HMGVAFAPVEKIKHTKTGNELYAVKLAGRVEAEVFGQLRQKAKEYDGYYSKFSRAFLFSTPEDAEAFRAE
result: 0.276

###

Measured soluble fraction (log2), listed per entry.
Experiment: soluble fraction after stress (log2 fold change); higher = more stays soluble; pooled small domains, quantitative proteomics
Settings: stress: pH 4
Answer with the value's number alone.

Solved entries (count: 3):
- MONOMER_SEQUENCE: "HMQNYLEFIGNELKALTSIPSPSGYTKDVAAYLMKTLSDMGYEPQLSNKGNVFVTIGGEGNPLVLAAHVD"
  soluble fraction (log2): -0.436
- MONOMER_SEQUENCE: "HMLYEDVQVPNVRYWKSRDAKKQLEDLGLRVLTEHVNDAYIQSDQVIRTSPEIGDTLRTGDTVTLYVSDG"
  soluble fraction (log2): 0.146
- MONOMER_SEQUENCE: "HMDEPGTGFKWREDVLLRVMEANGIDTSHRDDFVRHAVKFDNDDNLYLKKAEIEDAAAAWVSEHS"
  soluble fraction (log2): -1.59

query: Query: soluble fraction (log2); subject: HMKITADQEIETAINYFKKSIAEKGWKGVNPDEFKQMNDYLSETFGYSATIKFQKALDEQGLMVDE
result: -0.429

query: Query: soluble fraction (log2); subject: HMGAGLKIGNDHEYANYLEYKVSVEKYAPGAILGEIKQKGIQFNTTISKTTFYRYITDGVFLTITNADLPV
result: -0.138

query: Query: soluble fraction (log2); subject: HMDTLRARQEAAYRFLSAIAGDWRNYEEANRALFAGDAARFQDLTESWPADVRDHARHLASAAFSS
result: -1.15

query: Query: soluble fraction (log2); subject: HMNNLVTRREVEILGWIKEGKTTSDIAGILSLSPFTVKNHVQNILKKLGARSRSHAVAQAINLGLLH
result: -0.446
